Target: T1, FEM1B-EB-EC ternary complex (human, UniProt Q9UK73 1-627; Q15370 1-118; Q15369 17-112)
T1 construct: FEM1B, human, full-length (FEM1B^FL); elongin B (EB, ELOB), human; elongin C (EC, ELOC), human; written as one protomer; also called FEM1B-elongin B-elongin C; FEM1B-ELOB-ELOC; source: E. coli BL21(DE3), co-expressed, purified (Ni-NTA, SEC); copies: + +
Assay: ITC; peptides (0.5-1 mM) titrated into 50 μM protein in the cell, 25 °C; 20 mM Tris, 200 mM NaCl, pH 7.5, 1 mM EDTA; one-site binding model
Settings: both partners purified
pKd: −log10 of the molar value.
Consider the following binders; for each one, report its pKd.

Q: Consider the binder shown here: KAADHLHKFHENDNGAAAGDLWQ [CUX1 C-degron F-22A, SUMO fusion] What is its recorded pKd?
A: < 3.30

From here, focus on the item given below.
Q: Which pKd value is on record for KKHSLDLLLRHLSP [CCDC89 C-degron variant with deletion of nine residues in the linker region] ?
A: < 4.30
